- System: T24 (bladder) human-derived tumor cell line
- PROCEDURE DETAILS: MTT reduction antiproliferative assay, T24 bladder cells
- Format: cell-based
- RUN PARAMETERS: 48 h incubation, mean of at least three experiments, read-out: EC50 ± SEM T24
Reported EC50 values are given for each entry in this list.
Respond numerically; units are µM and should not be typed.

- COMPOUND: "COc1ccc(C(=O)c2cc(O)ccc2O)cc1OC [compound 10]"
  EC50 (µM): 147

// below: EC50 requested for another compound
COc1ccc(C(=O)c2cc(O)c3ccccc3c2O)cc1 [compound 18] has a reported EC50 of 127

###

- System: Balb/3T3 non-tumor fibroblasts
- PROCEDURE DETAILS: MTT reduction assay, non-tumor fibroblasts
- Format: cell-based
- RUN PARAMETERS: Mus musculus, 48 h incubation, mean of at least three experiments, read-out: EC50 ± SEM BALB/3T3
Reported pEC50 values are given for each entry in this list.
Scale note: pEC50 = -log10(concentration in M).

Examples with answers:
- MOLECULE: "COc1ccc(C(=O)c2cc(O)c3ccccc3c2O)cc1 [compound 18]"
  TEST TARGET: "Balb/3T3 non-tumor fibroblasts"
  pEC50: 3.97
- MOLECULE: "Cc1cccc(C(=O)c2cc(O)ccc2O)c1 [compound 5]"
  TEST TARGET: "Balb/3T3 non-tumor fibroblasts"
  pEC50: 4.00
- MOLECULE: "Cc1ccc(C(=O)c2cc(O)ccc2O)cc1 [compound 6]"
  TEST TARGET: "Balb/3T3 non-tumor fibroblasts"
  pEC50: 4.11

COc1cccc(C(=O)c2cc(O)c3ccccc3c2O)c1 [compound 17] has a reported pEC50 of 3.96

COc1cc(C(=O)c2cc(O)c3ccccc3c2O)cc(OC)c1O [compound 23] has a reported pEC50 of 4.00

COc1cc(C(=O)c2cc(O)ccc2O)ccc1O [compound 11] has a reported pEC50 of 4.11
